studySystem: Integrin alpha4beta1 on Jurkat cells (clone E6-1) (Homo sapiens, UniProt P13612;P05556 P13612:34-1032,P05556:21-798)
Sequence (P13612 34-1032, chain 1 of 2): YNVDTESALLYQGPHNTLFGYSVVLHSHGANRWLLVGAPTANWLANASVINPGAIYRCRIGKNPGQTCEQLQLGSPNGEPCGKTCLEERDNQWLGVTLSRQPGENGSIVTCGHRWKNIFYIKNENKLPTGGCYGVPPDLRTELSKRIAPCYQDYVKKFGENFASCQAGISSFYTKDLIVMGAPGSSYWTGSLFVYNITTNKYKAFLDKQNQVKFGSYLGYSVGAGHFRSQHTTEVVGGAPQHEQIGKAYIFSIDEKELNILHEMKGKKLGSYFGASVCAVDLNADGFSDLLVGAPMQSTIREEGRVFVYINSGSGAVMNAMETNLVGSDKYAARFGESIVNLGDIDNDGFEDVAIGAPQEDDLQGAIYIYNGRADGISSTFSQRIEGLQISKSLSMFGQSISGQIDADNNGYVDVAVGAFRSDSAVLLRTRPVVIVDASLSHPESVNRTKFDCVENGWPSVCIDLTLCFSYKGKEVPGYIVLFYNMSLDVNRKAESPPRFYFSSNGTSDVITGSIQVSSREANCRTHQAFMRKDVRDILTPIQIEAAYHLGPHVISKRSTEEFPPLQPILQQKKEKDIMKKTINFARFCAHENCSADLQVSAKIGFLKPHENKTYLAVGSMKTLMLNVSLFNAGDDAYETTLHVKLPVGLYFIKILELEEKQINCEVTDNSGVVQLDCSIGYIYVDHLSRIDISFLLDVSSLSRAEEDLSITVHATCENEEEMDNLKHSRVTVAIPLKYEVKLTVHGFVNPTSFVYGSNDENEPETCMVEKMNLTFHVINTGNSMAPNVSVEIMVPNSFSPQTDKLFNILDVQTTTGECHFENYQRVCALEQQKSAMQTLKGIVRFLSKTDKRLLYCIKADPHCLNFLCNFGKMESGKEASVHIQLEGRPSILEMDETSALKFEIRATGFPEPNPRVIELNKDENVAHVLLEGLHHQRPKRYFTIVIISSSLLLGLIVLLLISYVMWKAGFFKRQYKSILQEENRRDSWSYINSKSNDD
Sequence (P05556 21-798, chain 2 of 2): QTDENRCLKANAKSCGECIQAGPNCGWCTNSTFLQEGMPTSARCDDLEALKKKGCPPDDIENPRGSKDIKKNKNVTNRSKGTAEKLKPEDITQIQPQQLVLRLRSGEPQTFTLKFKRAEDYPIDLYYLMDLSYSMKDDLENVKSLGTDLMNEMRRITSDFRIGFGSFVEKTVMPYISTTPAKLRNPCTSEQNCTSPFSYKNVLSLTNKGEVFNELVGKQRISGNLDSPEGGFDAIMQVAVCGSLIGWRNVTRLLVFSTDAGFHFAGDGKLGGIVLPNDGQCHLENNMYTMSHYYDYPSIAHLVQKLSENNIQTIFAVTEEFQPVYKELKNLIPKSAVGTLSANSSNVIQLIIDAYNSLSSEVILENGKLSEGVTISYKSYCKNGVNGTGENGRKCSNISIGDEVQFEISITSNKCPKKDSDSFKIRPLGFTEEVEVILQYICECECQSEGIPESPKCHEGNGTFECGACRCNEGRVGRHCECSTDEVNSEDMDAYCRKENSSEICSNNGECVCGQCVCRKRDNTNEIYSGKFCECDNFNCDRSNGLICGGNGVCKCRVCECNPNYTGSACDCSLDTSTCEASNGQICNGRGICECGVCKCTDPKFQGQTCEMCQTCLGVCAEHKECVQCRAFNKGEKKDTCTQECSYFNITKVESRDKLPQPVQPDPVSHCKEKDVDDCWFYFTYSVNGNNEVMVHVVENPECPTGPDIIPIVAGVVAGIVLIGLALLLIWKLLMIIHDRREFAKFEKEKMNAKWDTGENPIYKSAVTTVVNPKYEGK
measurementNotes: flow; apparent, 4 C; better retained binding at 20 and 37 C than parent
conditionNotes: tags: endogenous, ATCC cell line
pKd: −log10 of the molar value.
experimentalEndpoint: pKd

binder	quantitativeResult
CGCGCCGTACTAGATGCAACCCGACTACTAACGTCGTACGAGCGCG (ssDNA, PS at * : C*G*CGCCGTA*CTA*GA*TGCA*A*CCCGACTACTAA*CGTCGTACGAGCG*C*G) [HR7A1.Tr2.S2E2.PSA]	8.02
